Test system: Plasmodium falciparum
Measurement notes: Screen against P. falciparum Asexual Blood Stage (ABS), at 5uM
Assay type: functional, Dd2
Run parameters: tested at 5 uM
The campaign covered roughly 65,000 compounds. About 2,100 (3.2%) showed an effect of 50% or more. The median lay at about -52%. For the sample, strong results were picked, then their nearest neighbours and some compounds at random.
Metric: INHIBITION (%)
// return numeric value only (unit: %, not printed)

> print(dat)
                                   compound  unit.symbol  reported.measurement
1  Cc1cccc(C2(CNC(=O)C(C)NC(N)=O)CCCC2)c1 (stereo unspecified)            %                  69.9

Request: // fetch Plasmodium falciparum INHIBITION for CC(C)(CNc1c(C#N)cnc2ccc(Cl)cc12)C(N)=O
Response: 11.4

Request: // fetch Plasmodium falciparum INHIBITION for O=C(c1cccs1)N1CCCC2(COCCN(c3cccnc3)C2)C1 (stereo unspecified)
Response: 4.74

Request: // fetch Plasmodium falciparum INHIBITION for Cc1nc(CN2CCN(c3nc4c(s3)c(C)nn4C)CC2)cs1
Response: -145

Request: // fetch Plasmodium falciparum INHIBITION for CC(C)(CNC(=O)COc1cccc(F)c1)C(N)=O
Response: 60.6

Request: // fetch Plasmodium falciparum INHIBITION for Cc1nc(CN2CCCC(c3cc(C(F)(F)F)[nH]n3)C2)cs1 (stereo unspecified)
Response: -50.2

Request: // fetch Plasmodium falciparum INHIBITION for CCC(CNC(=O)c1cncc(Br)c1)N1CCc2ccccc2C1 (stereo unspecified)
Response: 66.9

Request: // fetch Plasmodium falciparum INHIBITION for CCC(CNC(=O)c1ccc(Br)o1)N1CCc2ccccc2C1 (stereo unspecified)
Response: 16.3

Request: // fetch Plasmodium falciparum INHIBITION for Cc1cccc(Cn2cc(Br)c(NS(C)(=O)=O)n2)c1
Response: -96.25

Request: // fetch Plasmodium falciparum INHIBITION for CCC(CNC(=O)c1ccccc1Br)N1CCc2ccccc2C1 (stereo unspecified)
Response: 41.5

Request: // fetch Plasmodium falciparum INHIBITION for O=C(NCC1CC1)[C@H]1C[C@H]2OCC[C@H]2N(CCc2ccccc2)C1
Response: -62.8

* * *

System: Plasmodium falciparum
Measurement notes: Screen against P. falciparum Asexual Blood Stage (ABS), at 5uM
Assay type: functional, Dd2
Run parameters: tested at 5 uM
Screen size: about 65,000 compounds; about 2,100 (3.2%) showed an effect of 50% or more. The median lay at about -52%. The entries come from a sample that favours strong results as a whole.
molecules and their reported INHIBITION
// return numeric value only (unit: %, not printed)

> print(dat)
                    structure.smiles.string      metric  reported.measurement
1         COCCN1CC[C@@H](O)[C@@H]1Cc1ccccc1  INHIBITION                 -32.4
2  Cc1ccc2ncccc2c1CN1CC[C@H](N(C)C)[C@H](CCC(=O)O)C1  INHIBITION                 -3.92
3  COc1ccc(C[C@H]2CN(C(=O)C3CC3)CC[C@H]2OC)cc1  INHIBITION                  35.6
4   CO[C@@H]1CCN(Cc2nccs2)C[C@@H]1Cc1ccccc1  INHIBITION                 -9.75
5  Cc1noc(C)c1CN1CC[C@@H](OCC2CC2)[C@@H](Cc2ccccc2)C1  INHIBITION                  26.2

Request: // fetch Plasmodium falciparum INHIBITION for CO[C@H]1CCN(Cc2nccs2)C[C@@H]1Cc1ccccc1
Response: -25.6

Request: // fetch Plasmodium falciparum INHIBITION for CO[C@H]1CCN(Cc2ccoc2)C[C@@H]1Cc1ccccc1
Response: 67.3

Request: // fetch Plasmodium falciparum INHIBITION for Cc1noc(C)c1CN1CC[C@H](OCC2CC2)[C@@H](Cc2ccccc2)C1
Response: 62.1

Request: // fetch Plasmodium falciparum INHIBITION for COCCN1CC[C@H](OC)[C@@H]1Cc1ccccc1
Response: 62.8

Request: // fetch Plasmodium falciparum INHIBITION for COCCN1CC[C@@H](OC)[C@@H]1Cc1ccccc1
Response: 1.53

Request: // fetch Plasmodium falciparum INHIBITION for COc1ccc(C[C@H]2CN(Cc3ccoc3)CC[C@@H]2OC)cc1
Response: 64.8

* * *

Test system: Plasmodium falciparum
Measurement notes: Screen against P. falciparum Asexual Blood Stage (ABS), at 5uM
Assay type: functional, Dd2
Run parameters: tested at 5 uM
Hit rate of the full screen: of about 65,000 compounds, about 2,100 (3.2%) showed an effect of 50% or more. The median lay at about -52%. The sample holds strong results, similar compounds and a random draw of the others, so the mix is not that of the screen.
Metric: INHIBITION
Write the numeric value and append its unit.

> print(dat)
                                   compound  reported.measurement
1  Cc1ccc2c(c1)OCCCC2NCc1nnc2n1CCCCC2 (configuration not stated)                 -139%

Request: Form field: reported INHIBITION of COc1ccc(CNCc2ccnc(N3CCCCC3)c2)cc1OC
Response: -9.72%

Request: Form field: reported INHIBITION of CC(C)N1CCC(c2cnc(-c3cncnc3)cn2)CC1
Response: -18%

Request: Form field: reported INHIBITION of COc1cccc(-c2n[nH]cc2CNCC2CCS(=O)(=O)C2)c1 (configuration not stated)
Response: -48.5%

Request: Form field: reported INHIBITION of COc1ccc2c(c1)C(NCCc1c(C)noc1C)CCCO2 (configuration not stated)
Response: 32.9%

Request: Form field: reported INHIBITION of CCn1cc2c(n1)CN(Cc1sccc1C)CC2COCC1CC1 (configuration not stated)
Response: -6.58%

Request: Form field: reported INHIBITION of CN1CCC(Oc2ccc(NC(=O)c3ccccc3Br)cc2)CC1
Response: -76%

Request: Form field: reported INHIBITION of O=C(c1cnccn1)N1CCC2(CC1)CCN(Cc1ccccn1)C2=O
Response: -85.2%

* * *

System: Plasmodium falciparum
Measurement notes: Screen against P. falciparum Asexual Blood Stage (ABS), at 5uM
Assay type: functional, Dd2
Run parameters: tested at 5 uM
The campaign covered roughly 65,000 compounds. About 2,100 (3.2%) showed an effect of 50% or more. The median lay at about -52%. Only a selection was taken, and strong results are over-represented in it overall.
compounds and their reported INHIBITION
// return numeric value only (unit: %, not printed)

Solved cases (8 shown):
> print(dat)
                                   compound          target.entity  unit.symbol  reported.measurement
1  CCC(=O)N1CCCC1c1nc(N(C)C)ncc1-c1ccc(Cl)cc1 (stereo unspecified)  Plasmodium falciparum            %                  19.6
2  O=C(c1ccc(F)cc1)N1CC[C@H]2[C@H]1CCN2CC1CCOCC1  Plasmodium falciparum            %                  -112
3  c1ccc(CN2Cc3nccn3CC(Cn3cccn3)C2)nc1 (stereo unspecified)  Plasmodium falciparum            %                 -16.2
4  CCn1c(C2CCNCC2)nn(Cc2ccc(C(=O)NC)o2)c1=O  Plasmodium falciparum            %                 -72.6
5  CN(C)c1cc2c(nn1)CCN(C(=O)C1Cc3ccccc3O1)C2 (stereo unspecified)  Plasmodium falciparum            %                 -78.5
6     CNC(=O)c1cccnc1N1CCC(Oc2ccc(F)cc2)CC1  Plasmodium falciparum            %                 -88.2
7  CN1CCC(N(Cc2ccco2)S(=O)(=O)c2ccc(Cl)cc2)CC1  Plasmodium falciparum            %                  56.8
8  Cn1cnc2c1C(COCc1cccnc1)N(Cc1ccccc1)CC2 (stereo unspecified)  Plasmodium falciparum            %                  23.7

Request: // fetch Plasmodium falciparum INHIBITION for CN(C(=O)C1CCN(Cc2cnc3ccccn23)CC1)c1ccccc1
Response: 10

Request: // fetch Plasmodium falciparum INHIBITION for CN1N=C(C(=O)N(Cc2ccco2)C2CC2)CCC1=O
Response: -127

Request: // fetch Plasmodium falciparum INHIBITION for CN1CC2(CCN(c3nc(N)nc4c3CCNC4)CC2)OC1=O
Response: -71.4

* * *

molecules and their reported INHIBITION
Tested on: Plasmodium falciparum
Measurement notes: Screen against P. falciparum Asexual Blood Stage (ABS), at 5uM
Assay type: functional, Dd2
Run parameters: tested at 5 uM
Out of some 65,000 compounds screened, about 2,100 (3.2%) showed an effect of 50% or more. The median lay at about -52%. Many of the other results were omitted from the sample, so strong results are more common in it than they were.
// return numeric value only (unit: %, not printed)

> print(dat)
                                   molecule  reported.measurement
1  O=C(O)[C@@H]1CN(C(=O)c2ccc3[nH]nnc3c2)C[C@H]1c1ccccc1                  -123
2  c1ccc(-n2nnnc2CNCC2CCCN2c2cccnn2)cc1 (stereo unspecified)                 -59.9
3    CC(C)(C)c1nc(NS(=O)(=O)c2cccc(F)c2)no1                 -71.4
4  Cc1noc(C)c1CN1CCN(c2ccnc(-c3ccccc3)n2)CC1                 -33.7
5  O=C(C1=CCCC1)N1CCO[C@H]2[C@@H](Oc3ccccn3)CC[C@@H]21                 -51.5
6  CC(O)CN(C(=O)NC1CC1)C(C)C (stereo unspecified)                 -10.2
7    Cc1nc(-n2nc(-c3cccs3)cc2N)[nH]c(=O)c1C                 -26.1
8  CC(C)(C)n1ncc2c1CCCC2NCc1ccc2c(c1)CCO2 (stereo unspecified)                -0.776

Request: Form field: reported INHIBITION of CCn1ccnc1CN1CCCN(C(=O)COC2CCCCC2)CC1
Response: -84.3

Request: Form field: reported INHIBITION of Cn1cc(C[C@H]2[C@H](N3CCOCC3)CCN2c2ncc(F)cn2)cn1
Response: -63.8

Request: Form field: reported INHIBITION of Cc1cc(C(=O)N2CCO[C@H]3[C@H](Oc4ccccn4)CC[C@@H]32)c(C)[nH]1
Response: 51.5

Where do these numbers come from? They come from ChEMBL document CHEMBL4513216.
